- Tested on: HSV-1
- Method notes: Release of HSV-1 from infected Vero cells, plaque assay
- Type: cell-based, Herpes simplex virus-1 (Kos strain)
- Condition context: Human alphaherpesvirus 1; Vero cells, 72 h after a single application (Table 3A columns 2 & 4, HSV-1); read-out: 72 h EC50, inhibition of virus release
Experimental readout: EC50

Query block: Give the measured EC50 of COc1ccnc(C[S+]([O-])c2nc3ccc(-n4cccc4)cc3[nH]2)c1C (stereo not shown) .
Result block: 800 to 1200 nM
